Assay: Selectivity index, ratio of TC50 for mouse C2C12 cells to EC50 for antitrypanosomal activity against Trypanosoma cruzi CaI-72 trypomastigotes infected in mouse C2C12 cells
Format: toxicity, cell-based
Labelling field: enter criterion met if recorded selectivity ratio is less than 2. Enter criterion not met if it equals or exceeds that cut-off.

Some entries whose results are on file:
[[record]]
mol_smiles = "CCCn1cc/c(=N\\c2cnccn2)c2ccc(-c3cnc(N4CCCN(C)CC4)nc3)cc21"
class_name = "criterion met"

[[record]]
mol_smiles = "Cc1ccc2[nH]c3c4ccc(-c5cnc(N6CCCN(C)CC6)nc5)cc4ncc3c2c1"
class_name = "criterion not met"

[[record]]
mol_smiles = "COc1ccc(NC(=O)c2cc(F)c(N3CCCN(C)CC3)cc2F)cc1Cl"
class_name = "criterion met"

[[record]]
mol_smiles = "CN1CCN(c2ncc(-c3ccc4c(NCC5CCOCC5)ccnc4c3)cn2)CC1"
class_name = "criterion not met"


INPUT: Strictly below 2 in selectivity ratio? O=S(=O)(c1ccc(-c2ccc3nccc(NCCN4CCCC4)c3c2)cc1)N1CCOCC1
OUTPUT: criterion met

INPUT: Strictly below 2 in selectivity ratio? CN1CCCN(S(=O)(=O)c2ccc(-c3ccc4c(Nc5ccc(Cl)cn5)ccnc4c3)cc2)CC1
OUTPUT: criterion not met

---

Test system: Trypanosoma cruzi
Assay: Antitrypanosomal activity against Trypanosoma cruzi CaI-72 trypomastigotes infected in mouse C2C12 cells measured after 72 hrs by DAPI staining based assay
Type: functional, organism-based
Conditions: CaI-72, C2C12, 72 h
Measured endpoint: EC50 (nM)
Write the answer as a number in nM, unit excluded.

[[record]]
molecule = "CN1CCCN(c2ncc(-c3ccc4c(Nc5ccccn5)ccnc4c3)cn2)CC1"
unit_string = "nM"
reported_measurement = 1300

[[record]]
molecule = "CN1CCC2(CCN(c3ncc(-c4ccc5c(Nc6cnccn6)ccnc5c4)cn3)C2)C1 (stereo not given)"
unit_string = "nM"
reported_measurement = 520

[[record]]
molecule = "CN1CCCN(c2ncc(-c3ccc4c(c3)ncc3c5ccccc5[nH]c43)cn2)CC1"
unit_string = "nM"
reported_measurement = 240

[[record]]
molecule = "COc1ccc(Nc2ccnc3cc(-c4cnc(N5CCCN(C)CC5)nc4)ccc23)cc1Cl"
unit_string = "nM"
reported_measurement = 80

[[record]]
molecule = "CN1CCCN(c2ncc(-c3ccc4c(Nc5cnccn5)ccnc4c3)cn2)CC1"
unit_string = "nM"
reported_measurement = 1200


INPUT: Output EC50 of CCCN1CCN(c2ncc(-c3ccc4c(Nc5cnccn5)ccnc4c3)cn2)CC1
OUTPUT: 7600

INPUT: Output EC50 of CN1CCCN(c2ncc(-c3ccc4c(Nc5ccc(OC(F)(F)F)cc5)ccnc4c3)cn2)CC1
OUTPUT: 60

INPUT: Output EC50 of CCN1CCN(c2ncc(-c3ccc4c(Nc5cnccn5)ccnc4c3)cn2)CC1
OUTPUT: 7700

---

Test: Selectivity index, ratio of TC50 for human HepG2 cells to EC50 for antileishmanial activity against Leishmania major amastigotes infected in mouse RAW 264.7 cells
Type: toxicity, cell-based
Each entry below carries its recorded selectivity ratio.
Enter a number only.

Example entries and their recorded answers appear below.
[[record]]
mol_smiles = "CN1CCCN(S(=O)(=O)c2ccc(-c3ccc4c(Nc5ccc(OC(F)(F)F)cc5)ccnc4c3)cc2)CC1"
reported_measurement = 7.3

[[record]]
mol_smiles = "CN1CCCN(c2ccc(-c3ccc4c(Nc5cnccn5)ccnc4c3)cc2)CC1"
reported_measurement = 1.7

[[record]]
mol_smiles = "CN1CCN(c2ncc(Nc3ccc4c(Nc5cnccn5)ccnc4c3)cn2)CC1"
reported_measurement = 14

[[record]]
mol_smiles = "COc1ccc(Nc2ccnc3cc(-c4cnc(N5CCCN(C)CC5)nc4)ccc23)cc1Cl"
reported_measurement = 4.3


INPUT: Output selectivity ratio of CN1CCCN(c2ncc(-c3ccc4c(Nc5ccc(OC(F)(F)F)cc5)ccnc4c3)cn2)CC1
OUTPUT: 0.8

---

Each entry below carries its recorded selectivity ratio.
Test: Selectivity index, ratio of TC50 for human HepG2 cells to EC50 for antileishmanial activity against Leishmania major amastigotes infected in mouse RAW 264.7 cells
Assay type: toxicity, cell-based
Enter a number only.

Example entries and their recorded answers appear below.
[[record]]
mol_smiles = "Cc1ccc2[nH]c3c4ccc(-c5cnc(N6CCCN(C)CC6)nc5)cc4ncc3c2c1"
measured_endpoint = "selectivity ratio"
reported_measurement = 10

[[record]]
mol_smiles = "Cc1cc2c(Nc3cnccn3)ccnc2cc1-c1cnc(N2CCN(C)CC2)nc1"
measured_endpoint = "selectivity ratio"
reported_measurement = 3.3

[[record]]
mol_smiles = "CN1CCCN(S(=O)(=O)c2ccc(-c3ccc4c(Nc5ccc(Cl)cn5)ccnc4c3)cc2)CC1"
measured_endpoint = "selectivity ratio"
reported_measurement = 1.4


INPUT: Output selectivity ratio of Cc1cncc(Nc2ccnc3cc(-c4cnc(N5CCCN(C)CC5)nc4)ccc23)n1
OUTPUT: 2

---

Each entry below carries its recorded selectivity ratio.
Test: Selectivity index, ratio of TC50 for human HepG2 cells to EC50 for antiplasmodial activity against Plasmodium falciparum D6
Type: toxicity
Enter a number only.

Example entries and their recorded answers appear below.
[[record]]
compound = "CN1CCN(c2ncc(-c3ccc4c(NCC5CCOCC5)ccnc4c3)cn2)CC1"
reported_measurement = 615

[[record]]
compound = "CN1CCC2(CCN(c3ncc(-c4ccc5c(Nc6cnccn6)ccnc5c4)cn3)C2)C1 (centres undefined)"
reported_measurement = 533

[[record]]
compound = "CN1CCN(c2ncc(Nc3ccc4c(Nc5cnccn5)ccnc4c3)cn2)CC1"
reported_measurement = 312


Field: next compound
INPUT: Output selectivity ratio of O=S(=O)(c1ccc(-c2ccc3nccc(NCCN4CCCC4)c3c2)cc1)N1CCOCC1
OUTPUT: 307

---

Assay: Intrinsic clearance in rat hepatocytes assessed as per million cells
Type: ADME, cell-based, Hepatocyte
Settings: read-out: CLH
Measured endpoint: hepatocyte CLint (µL/min/1e6 cells)
Write the answer as a number in µL/min/1e6 cells, unit excluded.

[[record]]
mol_smiles = "CS(=O)(=O)N1CCN(c2ncc(-c3ccc4c(Nc5cnccn5)ccnc4c3)cn2)CC1"
unit_string = "µL/min/1e6 cells"
reported_measurement = 28

[[record]]
mol_smiles = "CN1CCCN(c2ncc(-c3ccc4/c(=N/c5cnccn5)ccn(C)c4c3)cn2)CC1"
unit_string = "µL/min/1e6 cells"
reported_measurement = 13


INPUT: Output hepatocyte CLint of O=S(=O)(c1ccc(-c2ccc3nccc(N[C@@H]4CCCC[C@H]4O)c3c2)cc1)N1CCOCC1
OUTPUT: 30

INPUT: Output hepatocyte CLint of CN1CCN(c2ncc(-c3ccc4c(Nc5cnccn5)ccnc4c3)cn2)CC1
OUTPUT: 127

---

Experiment: Selectivity index, ratio of TC50 for mouse C2C12 cells to EC50 for antitrypanosomal activity against Trypanosoma cruzi CaI-72 trypomastigotes infected in mouse C2C12 cells
Format: toxicity, cell-based
Labelling field: enter criterion met if recorded selectivity ratio is less than 2. Enter criterion not met if it equals or exceeds that cut-off.

[[record]]
molecule = "CN1CCC2(CCN(c3ncc(-c4ccc5c(Nc6cnccn6)ccnc5c4)cn3)C2)C1 (stereo not given)"
class_name = "criterion not met"

[[record]]
molecule = "CN1CC2(CCN(c3ncc(-c4ccc5c(Nc6cnccn6)ccnc5c4)cn3)C2)C1"
class_name = "criterion met"

[[record]]
molecule = "O=S(=O)(c1ccc(-c2ccc3nccc(NCCC4CCOCC4)c3c2)cc1)N1CCOCC1"
class_name = "criterion met"


INPUT: Strictly below 2 in selectivity ratio? CN1CCCN(c2ncc(-c3ccc4c(Nc5ccc(OC(F)(F)F)cc5)ccnc4c3)cn2)CC1
OUTPUT: criterion not met

INPUT: Strictly below 2 in selectivity ratio? CN1CCCN(S(=O)(=O)c2ccc(-c3ccc4c(Nc5ccc(OC(F)(F)F)cc5)ccnc4c3)cc2)CC1
OUTPUT: criterion not met

---

Tested on: Leishmania major
Assay: Antileishmanial activity against Leishmania major amastigotes infected in mouse RAW 264.7 cells by luciferase reporter gene assay
Format: functional, organism-based
Conditions: RAW264.7
Each entry below carries its recorded EC50.

[[record]]
compound = "CN1CCCN(c2ccc(-c3ccc4c(Nc5cnccn5)ccnc4c3)cc2)CC1"
reported_measurement = "5.5 µM"

[[record]]
compound = "CCCn1cc/c(=N\\c2cnccn2)c2ccc(-c3cnc(N4CCCN(C)CC4)nc3)cc21"
reported_measurement = "1.5 µM"

[[record]]
compound = "CN1CCN(c2ncc(-c3ccc4c(NC5CCOCC5)ccnc4c3)cn2)CC1"
reported_measurement = "> 25 µM"


INPUT: Output EC50 of CN1CCCN(S(=O)(=O)c2ccc(-c3ccc4c(Nc5ccc(OC(F)(F)F)cc5)ccnc4c3)cc2)CC1
OUTPUT: 0.22 µM

INPUT: Output EC50 of CN1CCN(c2ncc(-c3ccc4c(Nc5ccc(OCc6cccc(F)c6)c(Cl)c5)ccnc4c3)cn2)CC1
OUTPUT: > 1.5 µM

INPUT: Output EC50 of CCN1CCN(c2ncc(-c3ccc4c(Nc5cnccn5)ccnc4c3)cn2)CC1
OUTPUT: 24 µM

INPUT: Output EC50 of CN1CCCN(c2ncc(-c3ccc4c(c3)ncc3c5ccccc5[nH]c43)cn2)CC1
OUTPUT: > 5 µM

INPUT: Output EC50 of CN1CCN(c2ncc(-c3ccc4c(NC5CCC(N(C)C)CC5)ccnc4c3)cn2)CC1 (stereo not given)
OUTPUT: > 2.2 µM
